# System: normal BALB/C mice
# ASSAY COMMENT: Toxicity (acute lethality) after i.v. tail vein injection in mice
# Format: in vivo
# CONDITIONS: 0.2 mL, five BALB/C mice per dose group, 7 days
Measured LD-100 (minimum dose for which 100% mortality was observed for seven days post injection) by item
Express the result in mmol/kg but write the number alone.

[
  {
    "COMPOUND": "CC(=O)N(O)CCCCCNC(=O)CCC(=O)N(O)CCCCCNC(=O)CCC(=O)N(O)CCCCCN",
    "VALUE REPORTED": 1
  },
  {
    "COMPOUND": "CC(=O)N([O-])CCCCCNC(=O)CCC(=O)N([O-])CCCCCNC(=O)CCC(=O)N([O-])CCCCCN.[Fe+3]",
    "VALUE REPORTED": 2
  },
  {
    "COMPOUND": "O=C([O-])CN(CCO)CCN(CC(=O)[O-])CC(=O)[O-].[Fe+3]",
    "VALUE REPORTED": 0.5
  }
]

Now for a further compound.
In: Name the recorded LD-100 (minimum dose for which 100% mortality was observed for seven days post injection) of the item O=C(O)CN(CC(=O)O)[C@@H]1CCCC[C@H]1N(CC(=O)O)CC(=O)O (relative stereo) in your answer.
Out: 0.5
